Ref: ChEMBL document CHEMBL1156309

# MEASUREMENT TARGET: Cytochrome P450 3A4 (Homo sapiens, UniProt P08684)
# Sequence (P08684 whole entry): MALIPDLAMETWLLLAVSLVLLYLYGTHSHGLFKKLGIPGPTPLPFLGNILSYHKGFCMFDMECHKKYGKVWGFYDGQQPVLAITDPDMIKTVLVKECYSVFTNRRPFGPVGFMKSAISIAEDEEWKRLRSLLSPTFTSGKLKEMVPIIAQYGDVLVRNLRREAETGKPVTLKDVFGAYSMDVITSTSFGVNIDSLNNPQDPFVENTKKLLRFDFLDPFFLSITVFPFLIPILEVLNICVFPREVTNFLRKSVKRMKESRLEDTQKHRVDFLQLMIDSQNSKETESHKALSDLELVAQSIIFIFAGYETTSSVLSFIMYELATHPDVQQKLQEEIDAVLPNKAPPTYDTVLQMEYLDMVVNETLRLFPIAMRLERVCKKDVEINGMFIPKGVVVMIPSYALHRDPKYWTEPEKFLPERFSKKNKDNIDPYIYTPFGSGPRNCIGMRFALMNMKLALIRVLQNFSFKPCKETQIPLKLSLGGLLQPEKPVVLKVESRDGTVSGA
PARAMETER: IC50 (nM)
A number alone suffices; assume nM.

Record request: IC50 value, item COCCCc1cc(CN(C(=O)[C@@H](CN)Cc2ccc(CCCOc3c(Cl)cc(C)cc3Cl)cc2)C2CC2)cc(OCCOC)c1
1300

----------
# MEASUREMENT TARGET: Renin (Homo sapiens, UniProt P00797)
# Sequence (P00797 whole entry): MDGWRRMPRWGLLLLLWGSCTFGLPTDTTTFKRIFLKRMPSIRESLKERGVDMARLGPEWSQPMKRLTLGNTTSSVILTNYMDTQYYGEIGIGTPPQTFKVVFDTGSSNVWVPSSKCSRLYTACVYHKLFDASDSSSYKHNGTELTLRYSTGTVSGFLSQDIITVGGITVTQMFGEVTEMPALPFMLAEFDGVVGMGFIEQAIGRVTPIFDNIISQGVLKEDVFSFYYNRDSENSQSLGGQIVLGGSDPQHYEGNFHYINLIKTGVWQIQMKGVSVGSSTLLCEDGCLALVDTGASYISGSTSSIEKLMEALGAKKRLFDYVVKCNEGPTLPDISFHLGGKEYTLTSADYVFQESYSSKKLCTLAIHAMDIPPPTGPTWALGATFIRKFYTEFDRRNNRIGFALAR
# ASSAY OVERVIEW: Inhibition of human recombinant renin in human citreated-plasma
PARAMETER: pIC50
Scale: negative log10 of molar concentration, which is what pIC50 denotes.

[
  {
    "COMPOUND": "COCCCc1ccc(Cl)c(CN(C(=O)C(CN)Cc2ccc(CCCOc3c(Cl)cc(C)cc3Cl)cc2)C2CC2)c1 (racemic)",
    "MEASURED": 8.24
  },
  {
    "COMPOUND": "NCC(Cc1ccc(CCCOc2c(F)ccc(F)c2Cl)cc1)C(=O)N(Cc1cccc(Cl)c1Cl)C1CC1 (racemic)",
    "MEASURED": 7.68
  },
  {
    "COMPOUND": "Cc1cc(Cl)c(OCCCc2ccc(CC(CN)C(=O)N(Cc3cc(CCCN(C)C)ccc3Cl)C3CC3)cc2)c(Cl)c1 (stereo not drawn)",
    "MEASURED": 6.99
  }
]

Form entry - test system: Renin (Homo sapiens, UniProt P00797); read-out: pIC50; compound: Cc1cc(Cl)c(OCCCc2ccc(CC(CN)C(=O)N(Cc3cccc(Cl)c3Cl)C3CC3)cc2)c(Cl)c1 (stereo not drawn)
7.54

Form entry - test system: Renin (Homo sapiens, UniProt P00797); read-out: pIC50; compound: COCCCc1cc(Cl)c(Cl)c(CN(C(=O)C(CN)Cc2ccc(CCCOc3c(Cl)cc(C)cc3Cl)cc2)C2CC2)c1 (stereo not drawn)
7.51

Form entry - test system: Renin (Homo sapiens, UniProt P00797); read-out: pIC50; compound: Cc1cc(Cl)c(OCCCc2ccc(CC(CN)C(=O)N(Cc3cc(CCCO)ccc3Cl)C3CC3)cc2)c(Cl)c1 (stereo not drawn)
8.19

Form entry - test system: Renin (Homo sapiens, UniProt P00797); read-out: pIC50; compound: CC(=O)N(C)Cc1ccc(Cl)c(CN(C(=O)C(CN)Cc2ccc(CCCOc3c(Cl)cc(C)cc3Cl)cc2)C2CC2)c1 (stereo not drawn)
6.60

Form entry - test system: Renin (Homo sapiens, UniProt P00797); read-out: pIC50; compound: CNCC(Cc1ccc(CCCOc2c(F)ccc(F)c2Cl)cc1)C(=O)N(Cc1cccc(Cl)c1Cl)C1CC1 (stereo not drawn)
6.46

Form entry - test system: Renin (Homo sapiens, UniProt P00797); read-out: pIC50; compound: COCCCc1ccc(Cl)c(CN(C(=O)[C@H](CN)Cc2ccc(CCCOc3c(Cl)cc(C)cc3Cl)cc2)C2CC2)c1
8.62

Form entry - test system: Renin (Homo sapiens, UniProt P00797); read-out: pIC50; compound: Cc1cc(Cl)c(OCCCc2ccc(CC(CN)C(=O)N(Cc3cc(CCC#N)ccc3Cl)C3CC3)cc2)c(Cl)c1 (stereo not drawn)
8.00

Form entry - test system: Renin (Homo sapiens, UniProt P00797); read-out: pIC50; compound: Cc1cc(Cl)c(OCCCc2ccc(C[C@@H](CN)C(=O)N(Cc3cc(CCCC#N)ccc3Cl)C3CC3)cc2)c(Cl)c1
8.34

Form entry - test system: Renin (Homo sapiens, UniProt P00797); read-out: pIC50; compound: COCCCc1cc(CN(C(=O)C(CN)Cc2ccc(CCCOc3c(Cl)cc(C)cc3Cl)cc2)C2CC2)c(Cl)c[n+]1[O-] (stereo not drawn)
8.74

Form entry - test system: Renin (Homo sapiens, UniProt P00797); read-out: pIC50; compound: COCCCc1cc(CN(C(=O)C(CN)Cc2ccc(CCCOc3c(Cl)cc(C)cc3Cl)cc2)C2CC2)c(Cl)cn1 (stereo not drawn)
8.66
